Target: Tyrosine-protein phosphatase non-receptor type 1 (Homo sapiens)
Experiment: Inhibition of PTP1B (unknown origin) assessed as decrease in p-nitrophenol production from pNPP substrate at 25 ug/ml after 30 mins by HTS7000 bioassay reader analysis
property_measured: inhibition

INPUT: Lab note: Tyrosine-protein phosphatase non-receptor type 1 (Homo sapiens) assay, enter inhibition for `C=C(C)[C@@H]1CC[C@H](C)[C@]12CC(=C(C)C)C(=O)O2` here
OUTPUT: < 65%

INPUT: GET inhibition | system: Tyrosine-protein phosphatase non-receptor type 1 (Homo sapiens) | item: `CC1=C[C@@]2(O)O[C@@]3(C/C2=C(/C)CO)[C@@H](C)CC[C@@H]13`
OUTPUT: < 65%

INPUT: Using Tyrosine-protein phosphatase non-receptor type 1 (Homo sapiens) as the test system, report measured inhibition of CC1=CC(=O)C(=C(C)C)C[C@@H]2[C@@](C)(O)CC[C@]12O [AERUGIDIOL] .
OUTPUT: 87.5%

INPUT: Report inhibition from Tyrosine-protein phosphatase non-receptor type 1 (Homo sapiens) testing of `CC(C)=C1C[C@H]2[C@@H](CC[C@]2(C)O)C(CO)=CC1=O`
OUTPUT: < 65%

INPUT: Recall the reported inhibition of `C=C1CC[C@H]2C(C)(C)CCC[C@]2(C)[C@H]1/C=C/C(C)=O` when tested on Tyrosine-protein phosphatase non-receptor type 1 (Homo sapiens).
OUTPUT: 88.8%

INPUT: Write down measured inhibition (Tyrosine-protein phosphatase non-receptor type 1 (Homo sapiens)) for this compound. `C=C1C[C@]2(O)O[C@@]3(CC2=C(C)C)[C@@H](C)CC[C@@H]13`
OUTPUT: < 65%

INPUT: Provide inhibition, tested on Tyrosine-protein phosphatase non-receptor type 1 (Homo sapiens), for CC(C)=C1C[C@@H](O)[C@@](C)(O)CC[C@@H](O)/C(C)=C\C1=O [HEYNEANONES C] .
OUTPUT: 86.2%

INPUT: Consider the compound `C=C(C)[C@@H]1CC[C@@H](C)[C@@]12C=C(C(C)(C)O)C(=O)O2` tested on Tyrosine-protein phosphatase non-receptor type 1 (Homo sapiens); state its inhibition.
OUTPUT: < 65%

INPUT: For Tyrosine-protein phosphatase non-receptor type 1 (Homo sapiens), give inhibition of the listed compound: `C=C(C)[C@H]1CC[C@@](C)(O)[C@H]2CC[C@](C)(O)[C@H]2C1`
OUTPUT: < 65%
